The entries below pair compounds with log10 of IC50 values for DGKα (Homo sapiens, UniProt P23743), as found in several publications.
ASSAY_METRIC: log10 of IC50 (log10 of the value in µM)

- CC(C)(C#N)c1nnc(-c2ccc3c(c2)N(Cc2ccc(-c4ncc(OC(F)(F)F)cn4)cc2)C(=O)[C@@H](N)CS3(=O)=O)o1: 0.06
- CC[C@H]1CN(C(C)c2cc(C(F)(F)F)nn2CC)[C@H](CC)CN1c1cc(=O)n(C)c2cn(CC#N)nc12 (stereo partly shown): 1.05
- CCn1c(CC#N)nc2c(N3C[C@@H](C)N(C(C)c4ccc5c(c4)CN(CC(F)(F)F)C5=O)C[C@@H]3C)nc(=O)n(C)c21 (stereo partly shown): 0.98
- CC(c1ccc2nccnc2c1)N1C[C@H](C)N(c2cc(=O)n(C)c3cn(CC4CC4)nc23)C[C@H]1C (stereo partly shown): 2.04
- Cc1cc(-c2ccc(CN3C(=O)[C@@H](N)CS(=O)(=O)c4ccc(-c5nnc(C(C)(C)C#N)o5)cc43)cc2)ncc1OC(F)(F)F: 1.19
